assayDetails: In vivo PK DDI study of TOF with or without RTV in rats (plasma LC-MS/MS, NCA)
Set-up: species or system Sprague–Dawley rats
settings: Sprague-Dawley, rat, plasma, po, 10 mg/kg, rats, TOF 10 mg/kg oral; Control (TOF only, vehicle); median [interquartile range]
measuredQuantity: half-life (h)
Answer with a number only, understood to be in h.

Short answer for C[C@@H]1CCN(C(=O)CC#N)C[C@@H]1N(C)c1ncnc2[nH]ccc12 [TOF, Tofacitinib] : half-life was 1.21

###

assayDetails: In vivo PK DDI study of TOF with or without RTV in rats (plasma LC-MS/MS, NCA)
Parameters: species or system Sprague–Dawley rats
settings: Sprague-Dawley, rat, plasma, po, 10 mg/kg, rats, TOF 10 mg/kg oral; RTV 10 mg/kg; median [interquartile range]
measuredQuantity: half-life (h)
Answer with a number only, understood to be in h.

Short answer for C[C@@H]1CCN(C(=O)CC#N)C[C@@H]1N(C)c1ncnc2[nH]ccc12 [TOF, Tofacitinib] : half-life was 1
